molecules and their reported MRBA percent inhibition of total specific binding
# Test system: muscarinic cholinergic receptors
# Format: binding
# Condition info: rat brain homogenate, [3H]QNB, 25° C., pH 7.4; concentration not given
Structures can show the parent of a compound that is named as a salt.
Please respond with the number in % and leave the unit unwritten.

Task: What does the data say about its MRBA percent inhibition of total specific binding? Entry: "O=C(CCCN1CCCCC1)N1CCC(=C(c2ccccc2)c2ccccc2)CC1"
Output: 54

Task: Entry "Cl.Cl.Clc1cccc(C(=C2CCN(CCCN3CCCCC3)CC2)c2ccccc2)c1" : reported MRBA percent inhibition of total specific binding = ?
Output: 37

Task: Sample "Cl.Cl.c1ccc(C(=C2CCN(CCCCN3CCCCC3)CC2)c2ccccc2)cc1" — what was its MRBA percent inhibition of total specific binding?
Output: 83

---
Task: Find the recorded MRBA percent inhibition of total specific binding belonging to "CNC(=NC#N)NCCCN1CCC(=C(c2ccccc2)c2ccccc2)CC1" and report it.
Output: 42

Task: What value of MRBA percent inhibition of total specific binding has been reported for the following molecule? "O=C(CCN1CCC(=C(c2ccccc2)c2ccccc2)CC1)N1CCCc2ccccc21"
Output: 52

Task: Using the record for "Fc1ccc(C(=C2CCN(CCCN3CCCCC3)CC2)c2ccc(F)cc2)cc1" , report its MRBA percent inhibition of total specific binding.
Output: 57

Task: What MRBA percent inhibition of total specific binding value was documented for this molecule, Fc1cccc(C(=C2CCN(CCCN3CCCCC3)CC2)c2cccc(F)c2)c1 [Compound 17, dihydrochloride] ?
Output: 32

Task: // returns reported MRBA percent inhibition of total specific binding for input Fc1cccc(C(=C2CCN(CCCN3CCCCC3)CC2)c2ccccc2)c1 [Compound 19, dihydrochloride]
Output: 45
